- Tested on: H. influenzae (76)
- Run Description: In vitro activity (MIC), agar dilution method
- Assay type: cell-based
- Condition Description: Haemophilus influenzae; H. influenzae (76), agar dilution; read-out: MIC
Assay Readout: MIC (µg/mL)
Enter your answer as a number in µg/mL; do not include the unit.

Query: Please report MIC for the following compound: `CC(=O)OCC1=C(C(=O)O)N2C(=O)[C@@H](NC(=O)Cc3csc(-c4ncccc4O)n3)[C@H]2SC1`
Reply: 2

Query: Please report MIC for the following compound: `CC(=O)OCC1=C(C(=O)O)N2C(=O)[C@@H](NC(=O)Cc3csc(-c4ccccc4O)n3)[C@H]2SC1`
Reply: 0.5

Query: Please report MIC for the following compound: `CC(=O)OCC1=C(C(=O)O)N2C(=O)[C@@H](NC(=O)Cc3csc(-c4c(O)cccc4O)n3)[C@H]2SC1`
Reply: 4

Query: Please report MIC for the following compound: CO/N=C(\C(=O)N[C@@H]1C(=O)N2C(C(=O)O)=C(COC(C)=O)CS[C@H]12)c1csc(N)n1 [Cefot, Cefotaxime, reference compound]
Reply: 0.008

Query: Please report MIC for the following compound: `COc1ccccc1-c1nc(CC(=O)N[C@@H]2C(=O)N3C(C(=O)O)=C(COC(C)=O)CS[C@H]23)cs1`
Reply: 4

Query: Please report MIC for the following compound: `O=C(Cc1csc(-c2c(O)cccc2O)n1)N[C@@H]1C(=O)N2C(C(=O)O)=C(Cl)CS[C@H]12`
Reply: 1

====

- System: Staph. aureus (V41)
- Run Description: In vitro activity (MIC), agar dilution method
- Type: cell-based
- Condition Description: Staphylococcus aureus; Staph. aureus (V41), agar dilution; read-out: MIC
For each record, write down the corresponding MIC.
Write the numeric value and append its unit.

Query: Please report MIC for the following compound: `CC(=O)OCC1=C(C(=O)O)N2C(=O)[C@@H](NC(=O)Cc3csc(-c4ncccc4O)n3)[C@H]2SC1`
Reply: 0.5 µg/mL

Query: Please report MIC for the following compound: `CC(=O)OCC1=C(C(=O)O)N2C(=O)[C@@H](NC(=O)Cc3csc(-c4c(O)cccc4O)n3)[C@H]2SC1`
Reply: 16 µg/mL

Query: Please report MIC for the following compound: `CC(=O)OCC1=C(C(=O)O)N2C(=O)[C@@H](NC(=O)Cc3csc(-c4ccccc4O)n3)[C@H]2SC1`
Reply: 0.25 µg/mL

Query: Please report MIC for the following compound: `O=C(Cc1csc(-c2c(O)cccc2O)n1)N[C@@H]1C(=O)N2C(C(=O)O)=C(Cl)CS[C@H]12`
Reply: 16 µg/mL

Query: Please report MIC for the following compound: `CC(=O)OCC1=C(C(=O)O)N2C(=O)[C@@H](NC(=O)Cc3csc(-c4cccc(O)c4)n3)[C@H]2SC1`
Reply: 1 µg/mL

Query: Please report MIC for the following compound: CO/N=C(\C(=O)N[C@@H]1C(=O)N2C(C(=O)O)=C(COC(C)=O)CS[C@H]12)c1csc(N)n1 [Cefot, Cefotaxime, reference compound]
Reply: 2 µg/mL

Query: Please report MIC for the following compound: `COc1ccccc1-c1nc(CC(=O)N[C@@H]2C(=O)N3C(C(=O)O)=C(COC(C)=O)CS[C@H]23)cs1`
Reply: 0.5 µg/mL

====

- System: Staph. aureus (X400)
- Run Description: In vitro activity (MIC), agar dilution method
- Assay type: cell-based
- Condition Description: Staphylococcus aureus; Staph. aureus (X400), methicillin-resistant strain, agar dilution; read-out: MIC
Assay Readout: MIC

Query: Look up Staph. aureus (X400) data: MIC of `O=C(Cc1csc(-c2c(O)cccc2O)n1)N[C@@H]1C(=O)N2C(C(=O)O)=C(Cl)CS[C@H]12` , then report it.
Reply: 16 µg/mL

Query: Look up Staph. aureus (X400) data: MIC of CO/N=C(\C(=O)N[C@@H]1C(=O)N2C(C(=O)O)=C(COC(C)=O)CS[C@H]12)c1csc(N)n1 [Cefot, Cefotaxime, reference compound] , then report it.
Reply: 128 µg/mL

Query: Look up Staph. aureus (X400) data: MIC of `CC(=O)OCC1=C(C(=O)O)N2C(=O)[C@@H](NC(=O)Cc3csc(-c4ncccc4O)n3)[C@H]2SC1` , then report it.
Reply: 4 µg/mL

Query: Look up Staph. aureus (X400) data: MIC of `CC(=O)OCC1=C(C(=O)O)N2C(=O)[C@@H](NC(=O)Cc3csc(-c4ccccc4O)n3)[C@H]2SC1` , then report it.
Reply: 2 µg/mL

Query: Look up Staph. aureus (X400) data: MIC of `COc1ccccc1-c1nc(CC(=O)N[C@@H]2C(=O)N3C(C(=O)O)=C(COC(C)=O)CS[C@H]23)cs1` , then report it.
Reply: 16 µg/mL

Query: Look up Staph. aureus (X400) data: MIC of `CC(=O)OCC1=C(C(=O)O)N2C(=O)[C@@H](NC(=O)Cc3csc(-c4cccc(O)c4)n3)[C@H]2SC1` , then report it.
Reply: 16 µg/mL

Query: Look up Staph. aureus (X400) data: MIC of `CC(=O)OCC1=C(C(=O)O)N2C(=O)[C@@H](NC(=O)Cc3csc(-c4c(O)cccc4O)n3)[C@H]2SC1` , then report it.
Reply: 16 µg/mL
